- Tested on: Aspergillus fumigatus
- assay-remarks: Antifungal activity against Aspergillus fumigatus 7544 assessed as fungal growth inhibition incubated for 48 hrs by broth microdilution method
- Assay type: functional

{"compound": "O=C(NCC1CCCO1)c1c(O)c2sccc2n(Cc2ccccc2)c1=O (stereo not drawn)", "tested-on": "Aspergillus fumigatus", "MIC": "16 µg/mL"}
{"compound": "O=C(Nc1ccccc1)c1c(O)c2sccc2n(Cc2ccccc2)c1=O", "tested-on": "Aspergillus fumigatus", "MIC": "> 64 µg/mL"}
{"compound": "Cc1ccccc1CNC(=O)c1c(O)c2sccc2n(Cc2ccccc2)c1=O", "tested-on": "Aspergillus fumigatus", "MIC": "> 64 µg/mL"}

====

- assay-remarks: Hemolytic activity in rabbit RBC at 256 ug/ml incubated for 1 hr by spectrophotometry
- Type: toxicity, cell-based, Oryctolagus cuniculus, Erythrocyte
- cond: red blood cells, at 256 µg/mL, read-out: Activity
Each record here notes measured hemolysis at 1 h, 256 ug/ml.
recorded-metric: hemolysis at 1 h, 256 ug/ml (%)

{"compound": "CCCCNC(=O)c1c(O)c2sccc2n(Cc2ccccc2)c1=O", "recorded-metric": "hemolysis at 1 h, 256 ug/ml", "reading": 2.47}
{"compound": "OC(Cn1cncn1)(Cn1cncn1)c1ccc(F)cc1F [FLUCONAZOLE]", "recorded-metric": "hemolysis at 1 h, 256 ug/ml", "reading": 2.67}

====

- assay-remarks: Cytotoxicity against human Caco-2 cells assessed as cell growth inhibition incubated for 24 hrs by CCK-8 assay
- Assay type: toxicity, cell-based
recorded-metric: IC50 at 24 h

{"item-smiles": "CCCCNC(=O)c1c(O)c2sccc2n(Cc2ccccc2)c1=O", "reading": "> 256 µg/mL"}

====

A collection of compounds and their measured IC50 at 24 h
- assay-remarks: Cytotoxicity against human HUVEC cells assessed as inhibition on cell growth incubated for 24 hrs by CCK-8 assay
- Format: toxicity, cell-based
recorded-metric: IC50 at 24 h

{"item-smiles": "O=C(NCCO)c1c(O)c2sccc2n(Cc2ccccc2)c1=O", "recorded-metric": "IC50 at 24 h", "reading": "64 µg/mL"}
{"item-smiles": "O=C(NCCCCO)c1c(O)c2sccc2n(Cc2ccccc2)c1=O", "recorded-metric": "IC50 at 24 h", "reading": "16 µg/mL"}
{"item-smiles": "CC(C)NC(=O)c1c(O)c2sccc2n(Cc2ccccc2)c1=O", "recorded-metric": "IC50 at 24 h", "reading": "> 64 µg/mL"}
{"item-smiles": "C[C@@H]1[C@H](O)[C@@H](C)/C=C/C=C/C=C/C=C/C=C/C=C/C=C/[C@H](O[C@@H]2O[C@H](C)[C@@H](O)[C@H](N)[C@@H]2O)C[C@@H]2O[C@](O)(C[C@@H](O)C[C@@H](O)[C@H](O)CC[C@@H](O)C[C@@H](O)CC(=O)O[C@H]1C)C[C@H](O)[C@H]2C(=O)O", "recorded-metric": "IC50 at 24 h", "reading": "16 µg/mL"}
{"item-smiles": "O=C(NCCCO)c1c(O)c2sccc2n(Cc2ccccc2)c1=O", "recorded-metric": "IC50 at 24 h", "reading": "64 µg/mL"}
{"item-smiles": "O=C(NN1CCOCC1)c1c(O)c2sccc2n(Cc2ccccc2)c1=O", "recorded-metric": "IC50 at 24 h", "reading": "> 64 µg/mL"}
{"item-smiles": "O=C(NC1CCCCC1)c1c(O)c2sccc2n(Cc2ccccc2)c1=O", "recorded-metric": "IC50 at 24 h", "reading": "> 64 µg/mL"}
{"item-smiles": "C#CCNC(=O)c1c(O)c2sccc2n(Cc2ccccc2)c1=O", "recorded-metric": "IC50 at 24 h", "reading": "> 64 µg/mL"}
{"item-smiles": "O=C(NN1CCCCC1)c1c(O)c2sccc2n(Cc2ccccc2)c1=O", "recorded-metric": "IC50 at 24 h", "reading": "> 64 µg/mL"}
{"item-smiles": "CCCCCCNC(=O)c1c(O)c2sccc2n(Cc2ccccc2)c1=O", "recorded-metric": "IC50 at 24 h", "reading": "> 64 µg/mL"}
{"item-smiles": "COCCNC(=O)c1c(O)c2sccc2n(Cc2ccccc2)c1=O", "recorded-metric": "IC50 at 24 h", "reading": "16 µg/mL"}
{"item-smiles": "CCOCCNC(=O)c1c(O)c2sccc2n(Cc2ccccc2)c1=O", "recorded-metric": "IC50 at 24 h", "reading": "8 µg/mL"}
{"item-smiles": "CCCCNC(=O)c1c(O)c2sccc2n(Cc2ccccc2)c1=O", "recorded-metric": "IC50 at 24 h", "reading": "> 64 µg/mL"}
{"item-smiles": "CCCNC(=O)c1c(O)c2sccc2n(Cc2ccccc2)c1=O", "recorded-metric": "IC50 at 24 h", "reading": "> 64 µg/mL"}
{"item-smiles": "C=CCCNC(=O)c1c(O)c2sccc2n(Cc2ccccc2)c1=O", "recorded-metric": "IC50 at 24 h", "reading": "> 64 µg/mL"}
{"item-smiles": "CCCCCNC(=O)c1c(O)c2sccc2n(Cc2ccccc2)c1=O", "recorded-metric": "IC50 at 24 h", "reading": "> 64 µg/mL"}
{"item-smiles": "O=C(NC1CCCC1)c1c(O)c2sccc2n(Cc2ccccc2)c1=O", "recorded-metric": "IC50 at 24 h", "reading": "> 64 µg/mL"}
{"item-smiles": "OC(Cn1cncn1)(Cn1cncn1)c1ccc(F)cc1F", "recorded-metric": "IC50 at 24 h", "reading": "> 64 µg/mL"}
